# System: XIP peptide (Xip251-270) binding
# assaySummary: small-molecule binders of XIP peptide, primary screen, biochemical, small-molecule microarray, fluorescence 635/667 nm, 0.1 µg/mL protein (AID 1182)
# condition: fluorescent protein binding, 635 nm, higher = more signal, called active from +8 up or from −8 down
Active and inactive are the calls of the source.
Recorded composite z-score values for a group of molecules are listed next.

>  <molecule>
C=C(C)C1CN([C@H](CO)c2ccccc2)C(=O)/C1=C\c1ccccc1 (some centres not stated)

>  <result>
-0.598 (inactive)

$$$$
>  <molecule>
CC1CC/C=C\[C@H]2OC34C=CCN(C(C)C)C(=O)[C@H]3N(C(C)CO)C(=O)[C@@H]4C2C(=O)O1 (some centres not stated)

>  <result>
-0.275 (inactive)

$$$$
>  <molecule>
COCCOC(=O)N1C(=O)[C@@]2(c3ccccc31)[C@H](C(=O)Nc1nc3ccccc3s1)[C@H]1C(=O)O[C@H](c3ccccc3)[C@H](c3ccccc3)N1[C@@H]2c1ccccc1OCCO

>  <result>
0.238 (inactive)

$$$$
>  <molecule>
COc1ccc([Si](C)(C)[C@H]2[C@H](CC(=O)N(CCO)Cc3ccccc3)O[C@@]3(C(=O)N(Cc4ccc(N5C(=O)c6cccc7cccc5c67)cc4)c4ccccc43)[C@@H]2C)cc1

>  <result>
1.74 (inactive)

$$$$
>  <molecule>
COCCOC(=O)N1C(=O)[C@@]2(c3cc(C#CCC(C(=O)OC)C(=O)OC)ccc31)[C@H](C(N)=O)[C@H]1C(=O)O[C@H](c3ccccc3)[C@H](c3ccccc3)N1[C@@H]2c1ccccc1OCCO

>  <result>
0.286 (inactive)

$$$$
>  <molecule>
CCCCC(=C=CC[C@H](O)c1ccccc1OCCO)CCO

>  <result>
1.47 (inactive)

$$$$

Could you now consider this next molecule?
composite z-score of CCCCN1CC=CC23O[C@@H]4/C=C\CCCOC(=O)C4[C@H]2C(=O)N(CCCCCCO)[C@@H]3C1=O (some centres not stated) on XIP peptide (Xip251-270) binding?
0.723 (inactive)

* * *

Recorded z-score values for a group of compounds are listed next.
# assaySummary: Plasmodium falciparum growth inhibition, primary screen, strain 3D7, DAPI fluorescence, 100 nL (AID 1184);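 also: parasites grown inside human red blood cells in medium with human serum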
# condition: P. falciparum 3D7 growth, 3 d, higher = more signal
Keep the answer to the number alone.

Examples with answers:
>  <entrySmiles>
CCOC(=O)C[C@H]1[C@H](OC(=O)c2ccc(-c3ccccc3)cc2)[C@@H](NC(=O)C2CCCCC2)c2cc(OCCCO)ccc2N1C(=O)Cc1ccc(OC)cc1

>  <z-score>
-0.0911

$$$$
>  <entrySmiles>
CO[C@H]1O[C@H](CO)[C@@H](OC(=O)Nc2ccccc2)[C@@H]2OC(=O)[C@@H](Cc3ccccc3)C/C=C/C[C@H](Cc3ccccc3)C(=O)O[C@@H]12

>  <z-score>
0.232

$$$$

Could you now consider this next compound?
Would you kindly share the measured z-score for COCCOC(=O)N1C(=O)[C@@]2(c3cc(C#CCCO)ccc31)[C@H](c1ccc(O)cc1)N1[C@H](c3ccccc3)[C@H](c3ccccc3)OC(=O)[C@H]1[C@@H]2C(=O)NC[C@H](O)c1ccccc1 ?
0.0019

* * *

# assaySummary: small-molecule binders of probe aNOTCH3, primary screen, biochemical, small-molecule microarray, 635/667 nm fluorescence (AID 1120);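 also: probe is a biotin-tagged antibody raised against NOTCH3 rather than NOTCH3 protein; score merges spot fluorescence near 667 nm with spot signal to noise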
# condition: higher = more signal
readoutType: composite z-score
Keep the answer to the number alone.

Examples with answers:
>  <compound>
C=C(C(=O)CC[C@H](OC(=O)c1ccccc1-c1ccccc1C(=O)O)c1ccc(OCCO)cc1)C(C)C

>  <measuredNumber>
0.0282

$$$$
>  <compound>
CC1CC/C=C\[C@H]2OC34C=CCN(CCN5CCOCC5)C(=O)[C@H]3N(C(CO)C(C)C)C(=O)[C@@H]4C2C(=O)O1 (some centres not stated)

>  <measuredNumber>
-0.111

$$$$
>  <compound>
CC(C)(C)OC(=O)CC[C@@]1(C(N)=O)N=C(c2ccc(OCCCO)cc2)O[C@@H]1c1ccccc1CN=[N+]=[N-]

>  <measuredNumber>
0.651

$$$$
>  <compound>
CC(C)Cc1ccc(CN2CC[C@@H](NC(=O)c3ccccc3)C2)cc1

>  <measuredNumber>
-0.129

$$$$

Would you kindly share the measured composite z-score for CC[C@@H](O[Si](C#C[Si](C(C)C)(C(C)C)C(C)C)(C(C)C)C(C)C)c1cn(Cc2cccc(Cl)c2)nn1 ?
-0.119

Would you kindly share the measured composite z-score for C=CCNC(=O)[C@H]1[C@@H]2C(=O)O[C@@H](c3ccccc3)[C@@H](c3ccccc3)N2[C@@H](c2ccc(O)cc2)[C@]12C(=O)Nc1ccc(C#CCC(C(=O)OC)C(=O)OC)cc12 ?
-0.217

Would you kindly share the measured composite z-score for CCOC(=O)C1=CC[C@@H](c2ccccc2)N(S(=O)(=O)c2ccc(C)cc2)[C@@H]1C#N ?
0.0112

Cited source for all entries: PubChem BioAssay
